# Subject Of Test: T1, cyno FcRn/b2M (cyno, UniProt Q8SPV9 24-297; Q8SPW0 21-119, biotinylated)
# T1 construct: bought recombinant biotinylated protein (Immunitrack ITF05 or ACRO FCM-C82W5); also called cFcRn; cFcRn/cb2M
# Assay: SPR pH 6.0;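 further: surface plasmon resonance kinetics at 25 °C, diluted periplasmic extracts injected over immobilized ligand surfaces, 120 s association then 600–3600 s dissociation, running buffer containing 150 mM NaCl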
Result Type: koff (s⁻¹)
Number in s⁻¹, nothing else.

T0263018B11 Y35F (VHH, name in Kabat numbering, FLAG3-His6 tagged) VHH: EVQLVESGGGVVQPGGSLRLSCAASGFTFSSYAMFWVRQAPGKGLEWVSAISSGGGSTDYADSVKGRFTISRDNSKNTLYLQMNSLRPEDTALYYCAADTLYTSLTWYSYWGQGTLVTVSS; 0.0035

// koff lookup, binder = T0263018B11 S56H (VHH, name in Kabat numbering, FLAG3-His6 tagged) VHH: EVQLVESGGGVVQPGGSLRLSCAASGFTFSSYAMYWVRQAPGKGLEWVSAISSGGGHTDYADSVKGRFTISRDNSKNTLYLQMNSLRPEDTALYYCAADTLYTSLTWYSYWGQGTLVTVSS , result: 0.0013

// koff lookup, binder = T0263018B11 T28N (VHH, name in Kabat numbering, FLAG3-His6 tagged) VHH: EVQLVESGGGVVQPGGSLRLSCAASGFNFSSYAMYWVRQAPGKGLEWVSAISSGGGSTDYADSVKGRFTISRDNSKNTLYLQMNSLRPEDTALYYCAADTLYTSLTWYSYWGQGTLVTVSS , result: 0.0009

// koff lookup, binder = T0263018B11 Y32L (VHH, name in Kabat numbering, FLAG3-His6 tagged) VHH: EVQLVESGGGVVQPGGSLRLSCAASGFTFSSLAMYWVRQAPGKGLEWVSAISSGGGSTDYADSVKGRFTISRDNSKNTLYLQMNSLRPEDTALYYCAADTLYTSLTWYSYWGQGTLVTVSS , result: 0.0084
